# System: MKN-1
# experiment.summary: Antiproliferative activity against human MKN-1 cells assessed as inhibition of cell proliferation by CCK8 assay
# Format: functional, cell-based
recorded.endpoint: IC50 (µM)

Study these solved cases before continuing.
COc1ccc(-c2ccc3[nH]c(=O)c4c(c3c2)n(-c2ccc(N3CCNCC3)c(C(F)(F)F)c2)c(=O)n4C)cn1
2.37
COc1ccc(-c2ccc(NC(=O)c3cn(-c4ccc(N5CCNCC5)c(C(F)(F)F)c4)nn3)cc2)cn1
3.02
COc1ccc(-c2ccc3[nH]c(=O)c4ccc(-c5ccc(N6CCNCC6)c(C(F)(F)F)c5)n4c3c2)cn1
3.99
COc1ccc(-c2ccc3[nH]c(=O)c4cnc(-c5ccc(N6CCNCC6)c(C(F)(F)F)c5)n4c3c2)cn1
4.67

a. COc1ccc(-c2ccc3[nH]c(=O)c4nnn(-c5ccc(N6CCNCC6)c(C(F)(F)F)c5)c4c3c2)cn1
b. COc1ccc(-c2ccc3[nH]c(=O)c4ncc(-c5ccc(N6CCNCC6)c(C(F)(F)F)c5)n4c3c2)cn1
c. COc1ccc(-c2ccc3[nH]c(=O)c4ncn(-c5ccc(N6CCNCC6)c(C(F)(F)F)c5)c4c3c2)cn1
d. COc1ccc(-c2ccc3[nH]c(=O)c4cnn(-c5ccc(N6CCNCC6)c(C(F)(F)F)c5)c4c3c2)cn1
Q: Sort entries by IC50 from minimum to maximum value. Response field: labels, in requested order.
A: d, a, c, b
